assay_name: melting temperature; melt of duplexes
condition: sodium 0.0675 M; strand 1 µM
assay_readout: Tm
Be sure to follow the number with its unit.

Take a look at these entries with their results.
• CGACGTGCTTTATGTGCTG+CAGCACATGGAGCACGTCG (((((((((..((((((((+))))))))..))))))))) = 54.2 °C
• CGACGTGCATCATGTGCTG+CAGCACATACTGCACGTCG (((((((((..((((((((+))))))))..))))))))) = 49.7 °C
• CGACGTGCTTCATGTGCTG+CAGCACATGAAGCACGTCG (((((((((((((((((((+))))))))))))))))))) = 64.4 °C
• CGACGTGCGGAATGTGCTG+CAGCACATAAGGCACGTCG ((((((((...((((((((+))))))))...)))))))) = 51.5 °C
• CGACGTGCGTGATGTGCTG+CAGCACATCATGCACGTCG ((((((((.((((((((((+)))))))))).)))))))) = 60.2 °C

Challenge: Entry CGACGTGCGGGATGTGCTG+CAGCACATCCCGCACGTCG (((((((((((((((((((+))))))))))))))))))) : reported Tm = ?
Response given: 67.7 °C

Challenge: Entry CGACGTGCAACATGTGCTG+CAGCACATATTGCACGTCG ((((((((((.((((((((+)))))))).)))))))))) : reported Tm = ?
Response given: 54.3 °C

Challenge: Entry CGACGTGCGCGATGTGCTG+CAGCACATCGAGCACGTCG ((((((((.((((((((((+)))))))))).)))))))) : reported Tm = ?
Response given: 63.1 °C

Challenge: Entry CGACGTGCGGAATGTGCTG+CAGCACATTTGGCACGTCG ((((((((..(((((((((+)))))))))..)))))))) : reported Tm = ?
Response given: 54.6 °C
